System: HCT-15 colon
EXPERIMENT: NCI tumour cell line growth inhibition, 48 h
TEST_READOUT: TGI

{"COMPOUND": "O=NN(CCF)C(=O)NC1CCSCC1", "REPORTED_MEASUREMENT": "> 100 µM"}
{"COMPOUND": "O=C(O)c1ccccc1NC(=S)c1ccccc1", "REPORTED_MEASUREMENT": "> 100 µM"}
{"COMPOUND": "CO/N=C1/c2sccc2[C@H](NC(=O)C(Cc2ccccc2)NC(=O)OC(C)(C)C)[C@@H]1O (stereo not given in full)", "REPORTED_MEASUREMENT": "> 100 µM"}
{"COMPOUND": "C=CCC1(C)CCCN(Cc2ccccc2)C1=O (stereo not given)", "REPORTED_MEASUREMENT": "> 10 µM"}
{"COMPOUND": "CSc1c(C#N)c(N)n(-c2ccc(Cl)cc2)c(=O)c1C#N", "REPORTED_MEASUREMENT": "> 100 µM"}

---

TGI for assorted molecules
Test system: CCRF-CEM leukemia
EXPERIMENT: NCI tumour cell line growth inhibition, 48 h

{"MOLECULE": "CO/N=C1/c2sccc2[C@H](NC(=O)C(Cc2ccccc2)NC(=O)OC(C)(C)C)[C@@H]1O (stereo not given in full)", "TGI": "> 100 µM"}
{"MOLECULE": "CC1C=CC(OC(=O)C(C)(O)CCC(O)(C(=O)OC2CC(O)C(C(C)C)CC2(C)O)C(C)C)(C(C)C)CC1 (stereo not given)", "TGI": "0.901 µM"}
{"MOLECULE": "N/C(=N\\OC(=O)c1ccccc1)C(Cc1ccccc1)C(=O)NOC(=O)c1ccccc1 (stereo not given)", "TGI": "6.07 µM"}
{"MOLECULE": "CCOC(=O)c1c[nH]c2ccc3c(c2c1=O)S(=O)(=O)CC3 (tested in a mixture with another compound)", "TGI": "> 100 µM"}
{"MOLECULE": "COc1ccc(C2=NOC(N)(c3ccc(OC)cc3)C2)cc1 (stereo not given)", "TGI": "> 100 µM"}
{"MOLECULE": "CSc1ccc(C2=NN(C(C)=O)C(c3ccc(-c4ccc(Cl)cc4)o3)C2)cc1 (stereo not given)", "TGI": "> 100 µM"}
{"MOLECULE": "CCC1C(c2ccccc2O)c2cc3c(cc2OC1N1CCOCC1)OCO3 (stereo not given)", "TGI": "32.7 µM"}
{"MOLECULE": "CC(=O)/C(=C\\c1ccccc1O)C(=O)Nc1ccccc1C", "TGI": "84.9 µM"}
{"MOLECULE": "Cc1cccc(NC(=O)/C(=N\\N)C(c2cnc3ccc([N+](=O)[O-])cc3n2)[N+](=O)[O-])c1C (stereo not given)", "TGI": "> 100 µM"}
{"MOLECULE": "CN=C1OC2(c3ccccc3)C3=C(OC(=NC)N2C)C(=O)OC3(c2ccccc2)N1C (stereo not given)", "TGI": "> 100 µM"}
{"MOLECULE": "O=C(O)c1cc(CCc2cc(O)ccc2O)ccc1O", "TGI": "71.4 µM"}
{"MOLECULE": "COC(=O)C(Cc1c[nH]c2ccccc12)N=C1Nc2ccncc2S(=O)(=O)N1c1cccc(OC(C)C)c1 (stereo not given)", "TGI": "> 100 µM"}
{"MOLECULE": "CN=C(Nc1cccc(C(F)(F)F)c1)SCc1ccc(N=C=S)cc1", "TGI": "> 100 µM"}
{"MOLECULE": "NNc1nnc(-c2nnc(NN)o2)o1", "TGI": "> 10 µM"}
{"MOLECULE": "CN1CCN(c2ccc3c(c2)NCC(=O)N3)CC1", "TGI": "> 100 µM"}
{"MOLECULE": "CC(C)/C(Cl)=N/OC(=O)Nc1ccc(Cl)c(Cl)c1", "TGI": "3.91 µM"}
{"MOLECULE": "O=C1C(OCCOc2ccccc2)=C(OCCOc2ccccc2)C(=O)c2ccccc21", "TGI": "> 100 µM"}
{"MOLECULE": "COc1cccc(/N=N/C(=NNC(=O)c2ccc(C)cc2)c2ccc(N(C)C)cc2)c1", "TGI": "> 100 µM"}
{"MOLECULE": "N#CC1(C#N)C(c2ccccc2)C=CC12OCCCO2 (stereo not given)", "TGI": "88.7 µM"}
{"MOLECULE": "O=c1[nH]c2nc3ccccc3c(=O)n2/c1=C/c1ccco1", "TGI": "> 100 µM"}
